# tested target: human PR-B (Homo sapiens, UniProt P06401)
# Construct: expressed in transfected cells; host or cells: CV-1 cells (African green monkey kidney fibroblasts), transient transfection
# Sequence (P06401 whole entry): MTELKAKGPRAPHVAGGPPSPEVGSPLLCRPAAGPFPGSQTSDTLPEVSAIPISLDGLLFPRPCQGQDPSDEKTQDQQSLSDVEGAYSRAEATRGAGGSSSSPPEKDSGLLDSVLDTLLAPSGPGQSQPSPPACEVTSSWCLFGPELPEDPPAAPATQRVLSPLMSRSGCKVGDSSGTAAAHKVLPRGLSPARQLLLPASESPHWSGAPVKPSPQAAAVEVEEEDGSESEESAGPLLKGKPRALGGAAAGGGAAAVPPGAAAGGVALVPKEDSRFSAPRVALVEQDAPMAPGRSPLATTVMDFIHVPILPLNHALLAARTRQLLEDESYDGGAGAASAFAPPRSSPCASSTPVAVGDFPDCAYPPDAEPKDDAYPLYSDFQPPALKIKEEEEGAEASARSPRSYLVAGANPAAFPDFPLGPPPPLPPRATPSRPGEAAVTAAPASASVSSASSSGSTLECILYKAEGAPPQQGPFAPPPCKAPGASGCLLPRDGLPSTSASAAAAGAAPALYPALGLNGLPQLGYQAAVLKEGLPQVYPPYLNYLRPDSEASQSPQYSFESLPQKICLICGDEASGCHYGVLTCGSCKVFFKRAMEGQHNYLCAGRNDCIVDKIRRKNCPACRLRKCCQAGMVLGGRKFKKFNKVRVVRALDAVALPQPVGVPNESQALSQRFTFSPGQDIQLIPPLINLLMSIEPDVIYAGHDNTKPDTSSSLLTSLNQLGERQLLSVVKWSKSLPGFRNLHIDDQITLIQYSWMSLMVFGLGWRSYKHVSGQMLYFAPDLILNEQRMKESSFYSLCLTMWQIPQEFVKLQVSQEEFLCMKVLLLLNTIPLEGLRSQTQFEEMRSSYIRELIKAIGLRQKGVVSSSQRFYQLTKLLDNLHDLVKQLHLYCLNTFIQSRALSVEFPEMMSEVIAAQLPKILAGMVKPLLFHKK
# assay procedure: Co-transfection assay, PR agonist and antagonist activity, CV-1 cells;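 note: luciferase reporter driven by a hormone response element, co-transfected with human PR-B into CV-1 monkey kidney cells, agonists raise and antagonists lower the reporter signal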
# Type: cell-based
# conditions: antagonist mode, progesterone at its EC50; % maximal inhibition
Provide the reported PR Antagonist CV-1 Cells Efficacy (%) of each item.
Field: numeric (%). Do not append units.

Reported PR Antagonist CV-1 Cells Efficacy (%) (human PR-B (Homo sapiens, UniProt P06401)) for entry CC1=CC(C)(C)Nc2ccc3c(c21)C(c1ccccc1)Oc1ccccc1-3 (racemic) is 75

Reported PR Antagonist CV-1 Cells Efficacy (%) (human PR-B (Homo sapiens, UniProt P06401)) for entry C[C@H]1C(=O)C(C)(C)Nc2ccc3c(c21)O[C@H](c1ccccc1)c1ccccc1-3 (relative stereo) is 65

Reported PR Antagonist CV-1 Cells Efficacy (%) (human PR-B (Homo sapiens, UniProt P06401)) for entry CC1=CC(C)(C)Nc2cc3c(cc21)-c1ccc(F)cc1C3 is 36
